- System: Mus musculus
- experimentSummary: Anticonvulsant activity in ip dosed Mus musculus albino (mouse) assessed as protection against maximal electroshock-induced seizure after 4 hr
- Format: functional
- measurementContext: read-out: MED
Below: a set of entries, each annotated with reported minimal effective dose.
Respond with the bare value in mg/kg.

The examples below pair each entry with its known result.
* CC(C)=CCC/C(C)=C\C=N/c1nnc(-c2ccccc2)o1 | 100
* O=C1NC(=O)C(c2ccccc2)(c2ccccc2)N1 | 30
* NC(=O)N1c2ccccc2C=Cc2ccccc21 [CARBAMAZEPINE] | 100
* CC(C)=CCC/C(C)=C\C=N/NC(=O)Nc1nnc(-c2ccc(C)cc2)o1 | 300

Data point: COc1ccc(-c2nnc(NC(=O)N/N=C\C=C(\C)CCC=C(C)C)o2)cc1 ; minimal effective dose = 300

minimal effective dose reported for this compound CC(C)=CCC/C(C)=C\C=N/NC(=O)Nc1nnc(-c2ccccc2)o1 : 300

According to the records, this compound CC(C)=CCC/C(C)=C\C=N/c1nnc(-c2ccc(Cl)cc2)o1 displays minimal effective dose of 300

FYI, the data here is from ChEMBL document CHEMBL3045427.
